Data credit: patent US20240425478A1

TARGET_SYSTEM: Cyclin Dependent Kinase 2/Cyclin E1 (CDK2-cycE1) (Homo sapiens, UniProt P24941)
Construct: purchased ProQinase 0050-0055-1
TEST_METHOD_NOTES: CDK2-cycE1 TR-FRET (LANCE) enzyme assay
Format: biochemical
SETUP_CONDITIONS: Table O, enzymatic assay; read-out: CDK2 Ki
RECORDED_METRIC: Ki (nM)
Could you give me the number in nM? Just the number is fine.

Lab book: Ki of `Cc1ncncc1Nc1cc([C@H]2CC[C@@H](OC(=O)NC(C)C)C2)[nH]n1` noted as 15

Sample `CCn1nc(Nc2cc([C@H]3CC[C@@H](OC(=O)NC(C)C)C3)[nH]n2)ccc1=O` ; Ki observed: 0.43

// Ki lookup, compound = `Cc1ncccc1Nc1cc([C@H]2CC[C@@H](OC(=O)N[C@H]3CCN(C)C3)C2)[nH]n1` , result: 260

Record `CC(C)NC(=O)O[C@@H]1CC[C@H](c2cc(Nc3cccnc3)n[nH]2)C1` . Reported Ki: 1.7

// field: Ki; key: `Cc1ncc(Nc2cc([C@H]3CC[C@@H](OC(=O)NC(C)C)C3)[nH]n2)c(C)n1` ; value = 42

Record summary for `CC(C)NC(=O)O[C@@H]1CC[C@H](c2cc(Nc3cccn(C)c3=O)n[nH]2)C1` : reported Ki = 1100

In plain terms, `COc1nc(C)ncc1Nc1cc([C@H]2CC[C@@H](OC(=O)NC(C)C)C2)[nH]n1` has a documented Ki of 210

Per the records, this compound ( `Cn1cc(Nc2cc([C@H]3CC[C@@H](OC(=O)NC(C)(C)C)C3)[nH]n2)ccc1=O` ) has Ki equal to 7.6
